src = the RNAGym collection of RNA variant scans (doi:10.1073/pnas.2313332121)

Reported polymerase ribozyme fitness (log ratio) is given for each of the following variants.
B1: TPR t1 (parent)
chain: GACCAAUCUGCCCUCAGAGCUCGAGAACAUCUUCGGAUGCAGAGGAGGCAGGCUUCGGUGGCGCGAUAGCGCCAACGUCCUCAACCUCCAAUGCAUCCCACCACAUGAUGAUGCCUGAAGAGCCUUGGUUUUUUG

Variants of: B1
PROCEDURE TEXT: polymerase ribozyme fitness, log enrichment relative to wild type (log ratio); higher = more active; in vitro selection for triplet polymerase activity

MUTANT ID: C11A C70U
polymerase ribozyme fitness (log ratio): -2.4
--
MUTANT ID: C22G A46U C76U C98U
polymerase ribozyme fitness (log ratio): -5.32
--
MUTANT ID: C11G A29G A43C C49A A74C C85G G113A G135U
polymerase ribozyme fitness (log ratio): -3.78
--
MUTANT ID: A100U G120A G127C U131A
polymerase ribozyme fitness (log ratio): -2.13
--
MUTANT ID: G61C C89A A121G
polymerase ribozyme fitness (log ratio): -2.4
--
MUTANT ID: A24C C31G U32G C62U C114G
polymerase ribozyme fitness (log ratio): -8.07
--
MUTANT ID: G57A A84C
polymerase ribozyme fitness (log ratio): -1.76
--
MUTANT ID: A37U G44A G52U C79A G113U G120U
polymerase ribozyme fitness (log ratio): -5.01
--
MUTANT ID: G51U A111U
polymerase ribozyme fitness (log ratio): -6.02
--
MUTANT ID: A2U C94U
polymerase ribozyme fitness (log ratio): -3.62
--
MUTANT ID: A6U G45U G52C G69C C72U G122A
polymerase ribozyme fitness (log ratio): -3.45
--
MUTANT ID: C49A U78A
polymerase ribozyme fitness (log ratio): -1.14
--
MUTANT ID: C31U C70U C72U
polymerase ribozyme fitness (log ratio): -5.69
--
MUTANT ID: C62U A66U C73G C104U U112C
polymerase ribozyme fitness (log ratio): -1.37
--
MUTANT ID: C76U C79A G120C
polymerase ribozyme fitness (log ratio): 0.319
--
MUTANT ID: A6U C11G G69U U125G
polymerase ribozyme fitness (log ratio): -1.05
--
MUTANT ID: G44U G60C A91U A121G
polymerase ribozyme fitness (log ratio): -0.902
